test system: Primary Rat cortical astrocytes; test: Scratch wound assay, astrocytes; type: cell-based; conditions: Rattus norvegicus, Astrocyte; inflexion point, from AUC of % wound confluence; read-out: Scratch Assay Astrocytes IP
Below, each entry is listed alongside its reported IC50.
measured-property: IC50 (µM)

> print(dat)
                                   compound                           system  result
1  CC1CCc2c(-c3ccccc3Cl)nc3[nH]nc(N)c3c2C1 (centres unmarked) [Example 63]  Primary Rat cortical astrocytes      49
2  Cc1ccccc1-c1nc2[nH]nc(N)c2c2c1CCC(C)(C)C2 [Example 67]  Primary Rat cortical astrocytes     1.4

====

Entries with reported IC50 on P38alpha kinase (Homo sapiens, UniProt Q16539)
Sequence (Q16539 whole entry): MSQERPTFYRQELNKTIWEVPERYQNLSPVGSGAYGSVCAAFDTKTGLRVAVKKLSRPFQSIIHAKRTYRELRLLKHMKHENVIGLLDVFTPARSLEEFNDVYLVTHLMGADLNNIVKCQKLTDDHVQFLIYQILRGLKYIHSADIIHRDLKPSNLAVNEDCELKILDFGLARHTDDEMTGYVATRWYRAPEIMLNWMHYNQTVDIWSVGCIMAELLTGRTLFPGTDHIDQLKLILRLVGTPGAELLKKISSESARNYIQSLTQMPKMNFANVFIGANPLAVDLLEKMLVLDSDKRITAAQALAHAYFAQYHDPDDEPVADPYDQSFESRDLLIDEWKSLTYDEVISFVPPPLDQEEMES
measured-property: IC50 (µM)

> print(dat)
                                   molecule                                    system  result
1  CC1CCc2c(-c3ccccc3Cl)nc3[nH]nc(N)c3c2C1 (centres unmarked)  P38alpha kinase (Homo sapiens, UniProt Q16539)     7.3
2  Cc1ccccc1-c1nc2[nH]nc(N)c2c2c1CCC(C)(C)C2  P38alpha kinase (Homo sapiens, UniProt Q16539)     3.7

====

target: Recombinant EphA4 kinase His6-TEV-EphA4 (aa. 615-911) (Homo sapiens); construct: His6-TEV-EphA4 (36 KD) (aa. 615-911); His6 (N); TEV cleavage site (N); test: EphA4 kinase enzymatic assay (TR-FRET); conditions: 25 μM ATP, TR-FRET
Sequence (P54764 615-911): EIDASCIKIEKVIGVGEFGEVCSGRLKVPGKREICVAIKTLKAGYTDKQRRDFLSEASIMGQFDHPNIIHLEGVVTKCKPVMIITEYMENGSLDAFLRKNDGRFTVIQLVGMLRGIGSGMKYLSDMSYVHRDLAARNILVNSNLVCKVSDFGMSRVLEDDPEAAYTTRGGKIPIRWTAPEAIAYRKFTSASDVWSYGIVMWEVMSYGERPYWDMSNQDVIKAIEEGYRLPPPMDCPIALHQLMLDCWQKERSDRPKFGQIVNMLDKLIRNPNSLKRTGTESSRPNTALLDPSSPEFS
pIC50: −log10 of the molar value.
measured-property: pIC50

> print(dat)
                                   compound  result
1  CC1CCc2c(-c3ccccc3Cl)nc3[nH]nc(N)c3c2C1 (centres unmarked) [Example 63]    5.68
2  Cc1ccccc1-c1nc2[nH]nc(N)c2c2c1CCC(C)(C)C2 [Example 67]    5.82

====

Target: human form of EphA4 receptor over-expressed in CHO-K1 cells (Homo sapiens, UniProt P54764)
Sequence (P54764 20-986): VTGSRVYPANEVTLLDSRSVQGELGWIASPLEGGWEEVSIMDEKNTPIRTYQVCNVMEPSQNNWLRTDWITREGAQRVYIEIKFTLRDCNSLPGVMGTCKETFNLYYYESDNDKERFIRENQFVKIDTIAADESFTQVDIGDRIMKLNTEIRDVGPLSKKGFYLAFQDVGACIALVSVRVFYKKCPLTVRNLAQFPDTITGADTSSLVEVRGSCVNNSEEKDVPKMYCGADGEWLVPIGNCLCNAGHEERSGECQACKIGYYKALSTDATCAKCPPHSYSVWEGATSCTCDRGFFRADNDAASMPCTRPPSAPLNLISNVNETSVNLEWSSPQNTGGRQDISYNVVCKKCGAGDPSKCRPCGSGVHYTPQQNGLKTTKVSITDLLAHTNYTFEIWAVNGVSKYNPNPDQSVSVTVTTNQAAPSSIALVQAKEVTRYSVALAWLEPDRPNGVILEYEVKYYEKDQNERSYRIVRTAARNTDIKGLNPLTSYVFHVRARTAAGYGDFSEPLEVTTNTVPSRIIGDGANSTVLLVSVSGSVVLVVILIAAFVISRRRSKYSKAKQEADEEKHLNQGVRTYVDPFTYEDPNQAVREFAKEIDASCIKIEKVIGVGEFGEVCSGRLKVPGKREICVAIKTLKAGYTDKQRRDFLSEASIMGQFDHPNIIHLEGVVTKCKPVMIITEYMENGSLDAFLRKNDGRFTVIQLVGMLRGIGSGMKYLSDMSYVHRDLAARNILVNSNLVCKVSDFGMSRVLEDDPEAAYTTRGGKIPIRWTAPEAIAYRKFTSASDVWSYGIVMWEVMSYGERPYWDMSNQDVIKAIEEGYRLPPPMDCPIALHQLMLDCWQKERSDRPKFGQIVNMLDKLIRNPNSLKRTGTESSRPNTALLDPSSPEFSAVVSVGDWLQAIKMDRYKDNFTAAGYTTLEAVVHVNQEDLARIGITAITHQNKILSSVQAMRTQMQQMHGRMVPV
Assay: EphA4 cell-based assay (pGAS-Luc luciferase reporter in EphA4-transfected CHO-K1 cells)
Settings: inflexion point, luciferase, read-out: EphA4 Cell Assay IP
Protocol: A cell-based assay was used to measure the potency of the compounds on the human form of EphA4 receptor over-expressed in Chinese Hamster Ovary cell line, CHO-K1 cells (Merck Collection). […] Transfection and Luciferase Assay: CHO-K1 cells were plated in T-175 cell culture bottle in DMEM medium supplemented with 10% fetal bovine serum, 1 mM sodium pyruvate, 2 mM L-glutamine and 1.5 g/L sodium bicarbonate. […] The Firefly and Renilla luminescences are read consecutively on a Top-Count (Perkin-Elmer). […]
measured-property: IC50 (µM)

> print(dat)
                                   compound  display.unit  result
1  CC1CCc2c(-c3ccccc3Cl)nc3[nH]nc(N)c3c2C1 (centres unmarked)            µM     7.2
2  Cc1ccccc1-c1nc2[nH]nc(N)c2c2c1CCC(C)(C)C2            µM     2.3

====

pIC50: −log10 of the molar value.
Entries with reported pIC50 on P60c-src (Homo sapiens)
Sequence (P12931 whole entry): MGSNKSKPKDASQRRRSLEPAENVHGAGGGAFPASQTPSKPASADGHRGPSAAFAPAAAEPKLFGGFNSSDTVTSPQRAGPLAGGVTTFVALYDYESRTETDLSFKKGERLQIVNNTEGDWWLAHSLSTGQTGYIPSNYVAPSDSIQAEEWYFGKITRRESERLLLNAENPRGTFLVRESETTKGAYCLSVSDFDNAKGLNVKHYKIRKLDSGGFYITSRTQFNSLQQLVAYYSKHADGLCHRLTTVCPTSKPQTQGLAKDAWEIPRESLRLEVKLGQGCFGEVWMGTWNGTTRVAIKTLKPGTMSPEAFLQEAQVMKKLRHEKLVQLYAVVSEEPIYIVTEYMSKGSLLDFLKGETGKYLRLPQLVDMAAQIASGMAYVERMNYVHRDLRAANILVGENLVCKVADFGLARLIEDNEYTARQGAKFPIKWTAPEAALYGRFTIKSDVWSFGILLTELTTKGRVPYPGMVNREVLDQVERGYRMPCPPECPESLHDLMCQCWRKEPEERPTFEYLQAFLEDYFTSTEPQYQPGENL
measured-property: pIC50

> print(dat)
                                   compound  measured.property  result
1  CC1CCc2c(-c3ccccc3Cl)nc3[nH]nc(N)c3c2C1 (centres unmarked) [Example 63]              pIC50    5.08
2  Cc1ccccc1-c1nc2[nH]nc(N)c2c2c1CCC(C)(C)C2 [Example 67]              pIC50    6.52
